Tested on: Plasmodium falciparum
Experiment: Inhibitory activity against Plasmodium falciparum 68 neutral proteinase.
Assay type: functional
readout label: Ki (µM)

In [3]: df
Out[3]:
                           substance_smiles  readout_label  output_unit  relational_operator  measured_value
0  CC(C)C[C@H](NC(=O)[C@@H](NC(=O)[C@H](O)[C@@H](O)[C@H](O)[C@H](O)CO)C(C)C)C(=O)NCC(=O)N[C@@H](CCCN=C(N)N)C(=O)N(C)CC(=O)O             Ki           µM                    =            1220
1  CC(C)C[C@H](NC(=O)[C@@H](NC(=O)[C@H](O)[C@@H](O)[C@H](O)[C@H](O)CO)C(C)C)C(=O)NCC(=O)N[C@@H](CCCCN)C(=O)O             Ki           µM                    >            2500
2  CC(C)C[C@H](NC(=O)[C@@H](NC(=O)[C@H](O)[C@@H](O)[C@H](O)[C@H](O)CO)C(C)C)C(=O)NCC(=O)N[C@@H](CCCCN)C(=O)N(C)CC(=O)O             Ki           µM                    =             250
3  CCNC(=O)[C@H](C)NC(=O)CNC(=O)[C@H](CC(C)C)NC(=O)[C@@H](NC(=O)[C@H](O)[C@@H](O)[C@H](O)[C@H](O)CO)C(C)C             Ki           µM                    >            2500
4  CCNC(=O)[C@H](CCCCN)NC(=O)CNC(=O)[C@H](CC(C)C)NC(=O)[C@@H](NC(=O)[C@H](O)[C@@H](O)[C@H](O)[C@H](O)CO)C(C)C             Ki           µM                    =             480
